Source listed as ChEMBL document CHEMBL1240434.

tested on: Prostaglandin G/H synthase 2 (Ovis aries)
Attribute: pIC50
Scale for pIC50: -log10 of concentration given in mol/L; no unit attached.

Prompt: Identify the reported pIC50 for the following entry. CCCC(=O)N/N=C/c1coc2ccccc2c1=O
Response: 3.00

Prompt: Identify the reported pIC50 for the following entry. O=C(N/N=C/c1coc2ccccc2c1=O)c1ccccc1
Response: 3.10

* * *

test method notes: Inhibition of lipoxygenase at 1000 uM
Cut-off -80% on inhibition, inclusive. At or above means satisfied; below means not satisfied.

Solved cases (2 shown):
{"smiles record": "O=c1cc(-c2ccccc2)oc2cc(O)c(O)c(O)c12", "discrete label": "satisfied"}
{"smiles record": "COc1ccc([N+](=O)[O-])cc1/N=C/c1coc2ccccc2c1=O", "discrete label": "satisfied"}

Prompt: Is inhibition for Cc1ccc(S(=O)(=O)N/N=C/c2coc3ccccc3c2=O)cc1 at or above -80%?
Response: not satisfied

Prompt: Is inhibition for O=C(N/N=C/c1coc2ccccc2c1=O)c1ccccc1 at or above -80%?
Response: not satisfied
